Value source: patent US7473790B2

biological target: HCV polymerase (Hepatitis C virus genotype 1b, UniProt P26663); construct: 2.5 pmoles (0.15 μg) HCV polymerase protein in a final volume of 75 μL; assay: HCV polymerase primer/template-directed transcription assay (32P-GTP incorporation, filter binding); type: biochemical; details: recombinant HCV polymerase; 30 minutes at 30° C.; concentration giving 50% inhibition of polymerase-directed transcription; read-out: IC50
Sequence (P26663 2420-3010): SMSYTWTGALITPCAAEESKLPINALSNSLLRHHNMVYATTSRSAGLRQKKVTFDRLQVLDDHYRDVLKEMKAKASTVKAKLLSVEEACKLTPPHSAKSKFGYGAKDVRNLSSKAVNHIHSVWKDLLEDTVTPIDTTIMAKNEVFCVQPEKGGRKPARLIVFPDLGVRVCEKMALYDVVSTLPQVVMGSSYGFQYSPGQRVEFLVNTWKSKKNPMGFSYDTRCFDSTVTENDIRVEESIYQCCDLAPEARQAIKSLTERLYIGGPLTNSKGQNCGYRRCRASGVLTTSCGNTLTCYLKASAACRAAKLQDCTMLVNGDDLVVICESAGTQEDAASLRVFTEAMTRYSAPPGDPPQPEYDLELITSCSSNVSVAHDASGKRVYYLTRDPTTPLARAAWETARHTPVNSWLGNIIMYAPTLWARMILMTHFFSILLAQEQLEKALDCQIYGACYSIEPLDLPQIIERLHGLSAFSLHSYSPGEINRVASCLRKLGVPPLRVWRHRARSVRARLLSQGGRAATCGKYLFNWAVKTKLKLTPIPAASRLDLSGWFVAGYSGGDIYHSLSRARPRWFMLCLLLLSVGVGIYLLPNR
Each entry below lists one item and its recorded IC50 value.

COMPOUND | TARGET DESC | UNIT NAME | IC50
CCc1ccc(O)c(CCC2(C3CCCC3)CC(O)=C(Cc3nc4ncc(C)cn4n3)C(=O)O2)c1 (stereo not shown) [A(173)] | HCV polymerase (Hepatitis C virus genotype 1b, UniProt P26663) | nM | 4
COC(=O)c1nnc(SC2=C(O)CC(CCc3cc(Cl)c(OC)cc3OC)(C3CCCC3)OC2=O)n1C (stereo not shown) | HCV polymerase (Hepatitis C virus genotype 1b, UniProt P26663) | nM | 20
Cc1cc(C)n2nc(CC3=C(O)CC(CCc4ccc(C(C)(C)C#N)c(F)c4)(C4CCCC4)OC3=O)nc2n1 (stereo not shown) | HCV polymerase (Hepatitis C virus genotype 1b, UniProt P26663) | nM | 3
Cc1cc(C)n2nc(CC3=C(O)CC(CCc4ccc(C(C)(C)O)c(F)c4)(C4CCCC4)OC3=O)nc2n1 (single isomer, unassigned; enantiomer a) [A(218)] | HCV polymerase (Hepatitis C virus genotype 1b, UniProt P26663) | nM | 61
